- Tested on: B16F10.9 cells (MSR1 negative)
- Measurement description: Flow cytometry binding, MSR1 negative cells
- Type: cell-based, mouse
- Run parameters: 10 μg/mL antibody
Measured quantity: B16F10.9 MFI
I'd appreciate a reply containing only the number, no unit.

query: What measured B16F10.9 MFI goes with H1H27747P-N297Q (antibody, V domains shown) VH: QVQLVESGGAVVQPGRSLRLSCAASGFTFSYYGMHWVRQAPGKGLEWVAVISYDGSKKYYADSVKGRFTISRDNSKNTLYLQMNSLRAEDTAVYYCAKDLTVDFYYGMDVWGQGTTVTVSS VL: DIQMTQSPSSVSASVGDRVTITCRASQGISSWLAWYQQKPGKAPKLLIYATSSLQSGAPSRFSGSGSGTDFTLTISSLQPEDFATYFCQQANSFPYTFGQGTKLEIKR ?
result: 3875
